These data points were gathered from paper PMC10786891.

- assayedSystem: T1, EsCas13d, nuclease-dead (Eubacterium siraeum, UniProt B0MS50, R295A;H300A;R849A;H854A)
- T1 sequence: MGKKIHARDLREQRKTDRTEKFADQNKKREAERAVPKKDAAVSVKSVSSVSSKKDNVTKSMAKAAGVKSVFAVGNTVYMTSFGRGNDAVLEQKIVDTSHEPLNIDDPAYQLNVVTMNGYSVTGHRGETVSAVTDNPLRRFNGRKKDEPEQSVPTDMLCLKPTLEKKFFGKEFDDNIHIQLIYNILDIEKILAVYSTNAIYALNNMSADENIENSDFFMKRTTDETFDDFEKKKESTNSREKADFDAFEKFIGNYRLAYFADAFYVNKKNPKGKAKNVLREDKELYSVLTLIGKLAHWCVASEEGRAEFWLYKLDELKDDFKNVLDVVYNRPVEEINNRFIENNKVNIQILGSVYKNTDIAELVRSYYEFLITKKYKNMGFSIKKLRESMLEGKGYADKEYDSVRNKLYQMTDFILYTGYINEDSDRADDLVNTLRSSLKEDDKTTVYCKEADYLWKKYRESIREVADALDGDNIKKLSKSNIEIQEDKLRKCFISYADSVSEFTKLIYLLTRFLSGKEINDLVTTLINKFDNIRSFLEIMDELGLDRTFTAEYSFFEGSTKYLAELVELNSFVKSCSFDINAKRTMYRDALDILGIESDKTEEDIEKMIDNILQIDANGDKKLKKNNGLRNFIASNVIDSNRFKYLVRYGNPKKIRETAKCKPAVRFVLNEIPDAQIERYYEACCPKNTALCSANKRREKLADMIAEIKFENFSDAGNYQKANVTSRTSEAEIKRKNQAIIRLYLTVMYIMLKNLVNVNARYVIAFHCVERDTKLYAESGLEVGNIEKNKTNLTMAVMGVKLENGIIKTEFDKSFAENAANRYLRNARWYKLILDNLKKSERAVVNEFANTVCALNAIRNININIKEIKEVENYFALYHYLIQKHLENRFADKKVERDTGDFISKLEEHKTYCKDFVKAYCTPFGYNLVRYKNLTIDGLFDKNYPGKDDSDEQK
- method: crRNA (strand 1, pre-loaded); Mg2+; 40 mM Tris-HCl pH 7.5, 150 mM NaCl, 6 mM MgCl2, 1 mM DTT, 0.1% Tween-20, 0.2 mg/ml BSA; 25 C; 10 min per concentration, then washed
- runConditions: tags: His6-TwinStrep-SUMO cleaved; N-terminal SNAP kept (SNAP-Surface 488); label: 3' end held by stalled T7 RNA polymerase
In this section we review reported Kd values for a set of binders.
Kindly answer with a numeric value in nM, unit omitted.

Kd reported for this binder target 3 U21A (mixed) RNA 1: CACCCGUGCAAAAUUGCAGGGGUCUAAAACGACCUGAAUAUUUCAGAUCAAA RNA 2: GGGAAUGGAUCCACAUCUACGAAUUCGUUUAUGAUCUGAAAUAUUCAGGUCUGCAGAUCGGAAGAGCACACGU : 35.5

Kd reported for this binder target 1 insA 3' of 21,insC 3' of 5 (mixed) RNA 1: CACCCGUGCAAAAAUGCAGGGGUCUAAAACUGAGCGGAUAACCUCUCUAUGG RNA 2: GGGAAUGGAUCCACAUCUACGAAUUCGUACCAAUAGAGAGGUUAUCCGCCUCACCGAGAUCGGAAGAGCACACGU : 45

// moving on: another record for Kd
Kd reported for this binder target 1 A1G,A9C (mixed) RNA 1: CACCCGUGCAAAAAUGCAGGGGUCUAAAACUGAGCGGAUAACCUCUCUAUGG RNA 2: GGGAAUGGAUCCACAUCUACGAAUUCGUACCAUAGAGAGGUUCUCCGCUCGCCGAGAUCGGAAGAGCACACGU : 13.7
